Method description: inhibitors of TNFa-induced NFkB p65 translocation, primary screen, imaging, HUVEC, MLSMR starter and 10KST1 sets (AID 438);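 also: compound added about 3h40 before a 20 min TNFalpha stimulation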
Test settings: HUVEC TNFa-induced p65 nuclear translocation; measured here: nuclei count (cytotoxicity indicator), at 2.08 µM
List of cell count values.
// return just the number, without any unit appended

Check out these entries, answers already filled in.
>  <Smiles record>
CCOc1ccc(C(=O)N2CCC(C(=O)c3ccc4c(c3)OCCO4)CC2)cc1

>  <cell count>
511

$$$$
>  <Smiles record>
CCc1cc2c(NCCC(=O)O)ncnc2s1

>  <cell count>
507

$$$$

// query State, in one line, measured cell count of CCOC(=O)N1CCC(O)(c2cc(C)c(C)cc2C)CC1
// result 494

----------
Method description: reduction of polyQ htt aggregates in cells – imaging, exon1htt(103Q)mCFP cells, high-content imaging, primary screen (AID 483);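 also: compound exposure lasted 3 days before fixation; percent of the per-plate median nuclei count of sample wells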
Test settings: exon1htt(103Q)mCFP cell line, aggregate imaging, at 2 µM; measured here: cell count, toxicity
Measurement label: nuclei count (%)
Just the number please, in %, no unit attached.

Check out these entries, answers already filled in.
>  <Compound>
COc1ccc2cnn(-c3ccccc3)c(=O)c2c1OC

>  <Measured result>
107

$$$$
>  <Compound>
CCOC(=O)Nc1sc(=S)n(C)c1C

>  <Measured result>
95.3

$$$$
>  <Compound>
CCn1c(SCC(=O)c2ccc3c(c2)OCCO3)nnc1-c1ccco1

>  <Measured result>
115

$$$$
>  <Compound>
O=c1c2c(nc3nc(CCc4ccccc4)[nH]n13)CCC2

>  <Measured result>
97.5

$$$$

// query State, in one line, measured nuclei count of O=C(CSc1nc2ccccc2n1CC(=O)N1CCCC1)Nc1nccs1
// result 99.7

// query State, in one line, measured nuclei count of Cc1ccccc1NC(=O)C1CCN(c2cnccn2)CC1
// result 86.3

// query State, in one line, measured nuclei count of O=C(COC(=O)c1ccc(NS(=O)(=O)c2ccc3c(c2)OCCO3)cc1)NCC1CCCO1 (stereo not given)
// result 69.5

// query State, in one line, measured nuclei count of CCc1ncc(C(O)c2cccc(OC)c2OC)n1C (stereo not given)
// result 96.1

// query State, in one line, measured nuclei count of Cc1cc(C)c(-c2cc(C(=O)Nc3c(C)n(C)n(-c4ccccc4)c3=O)[nH]n2)c(O)c1
// result 111

// query State, in one line, measured nuclei count of Cc1n[nH]c(C)c1S(=O)(=O)Nc1ccc2c(c1)OCCO2
// result 91.5

// query State, in one line, measured nuclei count of COc1cc(C(=O)N2c3ccccc3CC2C)cc(OC)c1OC (stereo not given)
// result 89

// query State, in one line, measured nuclei count of Cc1nc(=S)n(-c2ccccc2)[nH]1
// result 113

// query State, in one line, measured nuclei count of O=C(Nc1ccc(S(=O)(=O)NC2CCCC2)cc1)c1cnccn1
// result 97.1

// query State, in one line, measured nuclei count of COc1ccc(N(CC(=O)N2c3ccccc3CC2C)S(=O)(=O)c2c(C)noc2C)cc1 (stereo not given)
// result 118

// query State, in one line, measured nuclei count of Cn1c(=O)c2c(nc(SCC(=O)O)n2Cc2cccc(C(F)(F)F)c2)n(C)c1=O
// result 77.2
